- Assay Target: Wnt-responsive promoter (TCF/LEF)
- Experimental Protocol: Wnt-dependent luciferase reporter assay
pEC50: −log10 of the molar value. Where a SMILES comes first, the peptide text is derived from it.
Assay Endpoint: pEC50

>>> result("CC[C@H](C)[C@H](NC(=O)[C@H](CC(C)C)NC(=O)[C@H](Cc1ccccc1)NC(=O)[C@H](Cc1c[nH]c2ccccc12)NC(=O)[C@H](CCSC)NC(C)=O)C(=O)N[C@@H](CS)C(=O)N[C@@H](Cc1ccccc1)C(=O)N[C@@H](Cc1c[nH]c2ccccc12)C(=O)NCC(=O)O [compound 198] (Ac-MWFLICFWG-OH)")
"> 5.12"
>>> result("CSCC[C@H](N)C(=O)N[C@@H](Cc1c[nH]c2ccccc12)C(=O)N[C@@H](Cc1ccccc1)C(=O)N[C@@H](CC(C)C)C(=O)N[C@@H](C)C(=O)N[C@@H](CO)C(=O)N[C@@H](Cc1ccccc1)C(=O)N[C@@H](Cc1c[nH]c2ccccc12)C(=O)NCC(=O)O [compound 158] (H-MWFLASFWG-OH)")
"4.82 to 5.12"
